The measurements presented in this section are drawn from the C3SDB collision cross section collection.

- test_parameters: [M+H]+; instrument: TW; calibrated with polyalanine and drug standards
recorded_metric: collision cross section (N2) (Å²)
Answers are plain numbers, in Å².

1. C[C@]12CC[C@H]3[C@@H](CCC4=CC(=O)CC[C@@]43C)[C@@H]1CC[C@H]2O [EPITESTOSTERONE] :: 170.7
2. O=c1cc(-c2cc(O)c(O)c(O)c2)oc2cc(O)cc(O)c12 :: 163.4
3. COc1ncnc(NS(=O)(=O)c2ccc(N)cc2)c1OC :: 166.2
4. O=C(O)c1cc(=O)c2ccccc2o1 :: 134
5. COc1cc(C(=O)N2CCOCC2)cc(OC)c1OC :: 164.5

Provide reported collision cross section (N2) for each item, in the same order as listed.
1. NC(N)=Nc1nc(CSCC/C(N)=N/S(N)(=O)=O)cs1
2. CC(C)=CCCC1(C)C=Cc2c(O)c3c(c(CC=C(C)C)c2O1)OC12C(=CCCC1C(C)(C)O[C@@]2(C/C=C(\C)C(=O)O)C(=O)O)C3=O (stereo partly drawn)
3. N#Cc1ccc2c(c1)N(CCCN1CCC(O)CC1)c1ccccc1S2

167.2
245.7
186.6
